Biological target: Amine oxidase [flavin-containing] A (Homo sapiens)
Sequence (P21397 whole entry): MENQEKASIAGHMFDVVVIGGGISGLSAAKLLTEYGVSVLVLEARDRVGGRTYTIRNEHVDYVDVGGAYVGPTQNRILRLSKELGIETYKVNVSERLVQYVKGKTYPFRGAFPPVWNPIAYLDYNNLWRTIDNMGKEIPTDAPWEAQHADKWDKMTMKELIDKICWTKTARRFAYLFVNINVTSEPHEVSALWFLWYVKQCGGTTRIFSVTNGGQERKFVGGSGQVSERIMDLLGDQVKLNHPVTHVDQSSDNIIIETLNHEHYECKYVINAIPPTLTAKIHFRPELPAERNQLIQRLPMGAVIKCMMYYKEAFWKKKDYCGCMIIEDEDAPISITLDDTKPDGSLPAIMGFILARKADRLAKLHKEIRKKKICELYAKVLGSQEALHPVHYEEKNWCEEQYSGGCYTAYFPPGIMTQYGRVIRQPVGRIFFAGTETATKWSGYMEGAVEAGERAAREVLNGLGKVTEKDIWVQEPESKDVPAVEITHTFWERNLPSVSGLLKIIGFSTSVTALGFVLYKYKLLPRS
Test: Inhibition of human recombinant microsomal MAO-A expressed in baculovirus-infected BTI-TN-5B1-4 cells assessed as inhibition of H2O2 production using p-tyramine as substrate preincubated for 15 mins followed by substrate addition by Amplex Red reagent based fluorescence analysis
assay-readout: IC50

> print(dat)
                                    molecule  assay.readout  observed
 1  CC(C)c1ccc(NC(=O)OCC2CCN(C3Cc4ccccc4C3)CC2)cc1           IC50  > 100 µM
 2  O=C(Nc1ccccc1)OCC1CCCN(C2Cc3ccccc3C2)C1 (stereo not drawn)           IC50  > 100 µM
 3  CC(C)c1ccc(NC(=O)OC2CCN(Cc3ccccc3)CC2)cc1           IC50  > 100 µM
 4  OCC1CCCN(Cc2ccccc2)C1 (stereo not drawn)           IC50  > 100 µM
 5  OCC1CCCN(C2Cc3ccccc3C2)C1 (stereo not drawn)           IC50  > 100 µM
 6     C#CCN1CCC(COC(=O)Nc2ccc(C(C)C)cc2)CC1           IC50  > 100 µM
 7   OC1CCCN(Cc2ccccc2)C1 (stereo not drawn)           IC50  > 100 µM
 8  O=C(Nc1ccccc1)OCC1CCCN(Cc2ccccc2)C1 (stereo not drawn)           IC50  > 100 µM
 9  CC(C)c1ccc(NC(=O)OCC2CCCN(Cc3ccccc3)C2)cc1 (stereo not drawn)           IC50  > 100 µM
10      C#CCN1CCC(OC(=O)Nc2ccc(C(C)C)cc2)CC1           IC50  > 100 µM
11   O=C(Nc1ccccc1)OCC1CCN(C2Cc3ccccc3C2)CC1           IC50  > 100 µM
12                     OCC1CCN(Cc2ccccc2)CC1           IC50  > 100 µM
13  CC(C)c1ccc(NC(=O)OC2CCCN(Cc3ccccc3)C2)cc1 (stereo not drawn)           IC50  > 100 µM
14           CCN(C)C(=O)OC1CCN(Cc2ccccc2)CC1           IC50  > 100 µM
15            C#CCN1CCC(COC(=O)Nc2ccccc2)CC1           IC50  > 100 µM
16  CCN(C)C(=O)OCC1CCCN(Cc2ccccc2)C1 (stereo not drawn)           IC50  > 100 µM
17  C#CCN1CCCC(COC(=O)Nc2ccc(C(C)C)cc2)C1 (stereo not drawn)           IC50  > 100 µM
18                  OC1CCN(C2Cc3ccccc3C2)CC1           IC50  > 100 µM
19  O=C(Nc1ccccc1)OC1CCCN(Cc2ccccc2)C1 (stereo not drawn)           IC50  > 100 µM
20  O=C(Nc1ccccc1)OC1CCCN(C2Cc3ccccc3C2)C1 (stereo not drawn)           IC50  > 100 µM
21  CCN(C)C(=O)OC1CCCN(Cc2ccccc2)C1 (stereo not drawn)           IC50  > 100 µM
22       O=C(Nc1ccccc1)OCC1CCN(Cc2ccccc2)CC1           IC50  > 100 µM
23  CC(C)c1ccc(NC(=O)OC2CCN(C3Cc4ccccc4C3)CC2)cc1           IC50  > 100 µM
24  C#CCN1CCCC(COC(=O)Nc2ccccc2)C1 (stereo not drawn)           IC50  > 100 µM
25  C#CCN1CCCC(COC(=O)N(C)CC)C1 (stereo not drawn)           IC50  > 100 µM
26  CCN(C)C(=O)OCC1CCCN(C2Cc3ccccc3C2)C1 (stereo not drawn)           IC50  > 100 µM
27        C#CCN1CCCC(O)C1 (stereo not drawn)           IC50  > 100 µM
28       CCN(C)C(=O)OC1CCN(C2Cc3ccccc3C2)CC1           IC50  > 100 µM
29  CCN(C)C(=O)OC1CCCN(C2Cc3ccccc3C2)C1 (stereo not drawn)           IC50  > 100 µM
30             C#CCN1CCC(OC(=O)Nc2ccccc2)CC1           IC50  > 100 µM
31                           C#CCN1CCC(O)CC1           IC50  > 100 µM
32        O=C(Nc1ccccc1)OC1CCN(Cc2ccccc2)CC1           IC50  > 100 µM
33  CC(C)c1ccc(NC(=O)OC2CCCN(C3Cc4ccccc4C3)C2)cc1 (stereo not drawn)           IC50  > 100 µM
34       C#CCN1CCCC(CO)C1 (stereo not drawn)           IC50  > 100 µM
35                          C#CCN1CCC(CO)CC1           IC50  > 100 µM
36                 OCC1CCN(C2Cc3ccccc3C2)CC1           IC50  > 100 µM
37          CCN(C)C(=O)OCC1CCN(Cc2ccccc2)CC1           IC50  > 100 µM
38  C#CCN1CCCC(OC(=O)Nc2ccc(C(C)C)cc2)C1 (stereo not drawn)           IC50  > 100 µM
39               C#CCN1CCC(COC(=O)N(C)CC)CC1           IC50  > 100 µM
40                C#CCN1CCC(OC(=O)N(C)CC)CC1           IC50  > 100 µM
41                      OC1CCN(Cc2ccccc2)CC1           IC50  > 100 µM
42  C#CCN1CCCC(OC(=O)Nc2ccccc2)C1 (stereo not drawn)           IC50  > 100 µM
43  OC1CCCN(C2Cc3ccccc3C2)C1 (stereo not drawn)           IC50  > 100 µM
44  CC(C)c1ccc(NC(=O)OCC2CCN(Cc3ccccc3)CC2)cc1           IC50  > 100 µM
45    O=C(Nc1ccccc1)OC1CCN(C2Cc3ccccc3C2)CC1           IC50  > 100 µM
46  CC(C)c1ccc(NC(=O)OCC2CCCN(C3Cc4ccccc4C3)C2)cc1 (stereo not drawn)           IC50  > 100 µM
47      CCN(C)C(=O)OCC1CCN(C2Cc3ccccc3C2)CC1           IC50  > 100 µM
48  C#CCN1CCCC(OC(=O)N(C)CC)C1 (stereo not drawn)           IC50  > 100 µM
